- testName: Apparent permeability in BBMEC
- Assay type: ADME, Bos taurus
- conditionLabel: cattle
Numbered stars: 1 amine (or outer) side, 2 acyl side, 3 side chain; on linkers, the order of the positions; unused ones are H or OH. Square brackets hold non-standard residues; d marks the D form. Peptide text beside a SMILES is read from it. * marks the point of attachment. ξ: configuration not given here. 2Nal = N[C@@H](Cc1ccc2ccccc2c1)C(=O)O; NMeF = CN[C@@H](Cc1ccccc1)C(=O)O; ξNip = O=C(C1CCCN([*:1])C1)[*:2]; X1 = NCC(=O)CCC(=O)*
The entries below are paired with their reported Papp.
measureName: Papp (×10⁻⁶ cm/s)

INSERT INTO results (compound, readingunit, val) VALUES
  ('Cn1c(=O)c2c(ncn2C)n(C)c1=O', '×10⁻⁶ cm/s', 16.1),
  ('CN(C(=O)[C@H](Cc1ccc2ccccc2c1)NC(=O)C1CCCNC1)[C@@H](Cc1ccccc1)C(=O)N(C)[C@@H](Cc1ccccc1)C(=O)N(C)[C@@H](Cc1ccccc1)C(N)=O (stereo partly specified) (ξNip-[2Nal][NMeF][NMeF][NMeF]-NH2)', '×10⁻⁶ cm/s', 3.5),
  ('NC(=O)N1c2ccccc2C=Cc2ccccc21 [CARBAMAZEPINE]', '×10⁻⁶ cm/s', 16.5),
  ('CN(C(=O)C1CCCNC1)[C@@H](Cc1ccccc1)C(=O)N(C)[C@@H](Cc1ccccc1)C(=O)N(C)[C@@H](Cc1ccccc1)C(=O)N(C)[C@@H](Cc1ccccc1)C(N)=O (stereo partly specified) (ξNip-[NMeF][NMeF][NMeF][NMeF]-NH2)', '×10⁻⁶ cm/s', 6.6),
  ('CC(C)NCC(O)COc1cccc2ccccc12 (stereo unspecified)', '×10⁻⁶ cm/s', 16.9),
  ('CN(C(=O)CCC(=O)CN)[C@@H](Cc1ccccc1)C(=O)N(C)[C@@H](Cc1ccccc1)C(=O)N(C)[C@@H](Cc1ccccc1)C(=O)N(C)[C@@H](Cc1ccccc1)C(N)=O (X1-[NMeF][NMeF][NMeF][NMeF]-NH2)', '×10⁻⁶ cm/s', 15);

---

- testName: Permeability across artificial membrane assessed as membrane retention at 200 uM by PAMPA using HPLC/MS method
- Format: ADME
Numbered stars: 1 amine (or outer) side, 2 acyl side, 3 side chain; on linkers, the order of the positions; unused ones are H or OH. Square brackets hold non-standard residues; d marks the D form. Peptide text beside a SMILES is read from it. * marks the point of attachment. ξ: configuration not given here. 2Nal = N[C@@H](Cc1ccc2ccccc2c1)C(=O)O; NMeF = CN[C@@H](Cc1ccccc1)C(=O)O; ξNip = O=C(C1CCCN([*:1])C1)[*:2]; X1 = NCC(=O)CCC(=O)*; GABA = NCCCC(=O)O
Lab note: compare Activity against 5%. Equal or greater, write met. Smaller, write not met.

INSERT INTO measurements (molecule, classification) VALUES
  ('CN(C(=O)C1CCCNC1)[C@@H](Cc1ccccc1)C(=O)N(C)[C@@H](Cc1ccccc1)C(=O)N(C)[C@@H](Cc1ccccc1)C(=O)N(C)[C@@H](Cc1ccccc1)C(N)=O (stereo not given in full) (ξNip-[NMeF][NMeF][NMeF][NMeF]-NH2)', 'not met'),
  ('CC(=O)N1CCC[C@H]1C(=O)N1CCC[C@H]1C(=O)N1CCC[C@H]1C(=O)N1CCC[C@H]1C(=O)N1CCC[C@H]1C(=O)N1CCC[C@H]1C(N)=O (Ac-PPPPPP-NH2)', 'not met'),
  ('CC(=O)N1CCC[C@H]1C(=O)N1CCC[C@H]1C(=O)N1CCC[C@H]1C(=O)N1CCC[C@H]1C(N)=O (Ac-PPPP-NH2)', 'not met'),
  ('CC(C)NCC(O)COc1cccc2ccccc12 (stereo not given) [PROPRANOLOL]', 'met'),
  ('CC(=O)N1CCC[C@H]1C(=O)N1CCC[C@H]1C(=O)N1CCC[C@H]1C(=O)N1CCC[C@H]1C(=O)N1CCC[C@H]1C(=O)N1CCC[C@H]1C(=O)N1CCC[C@H]1C(=O)N1CCC[C@H]1C(=O)N1CCC[C@H]1C(=O)N1CCC[C@H]1C(N)=O (Ac-PPPPPPPPPP-NH2)', 'not met'),
  ('CC(=O)N1CCC[C@H]1C(=O)N1CCC[C@H]1C(=O)N1CCC[C@H]1C(=O)N1CCC[C@H]1C(=O)N1CCC[C@H]1C(=O)N1CCC[C@H]1C(=O)N1CCC[C@H]1C(=O)N1CCC[C@H]1C(N)=O (Ac-PPPPPPPP-NH2)', 'not met'),
  ('O=C(O)C1CCCNC1 (stereo not given) [NIPECOTIC ACID]', 'met'),
  ('NCCCC(=O)O [GAMMA-AMINOBUTYRIC ACID]', 'met'),
  ('NC(=O)N1c2ccccc2C=Cc2ccccc21 [CARBAMAZEPINE]', 'not met'),
  ('NCC(=O)CCC(=O)O [AMINOLEVULINIC ACID]', 'met'),
  ('CN(C(=O)[C@H](Cc1ccc2ccccc2c1)NC(=O)CCCN)[C@@H](Cc1ccccc1)C(=O)N(C)[C@@H](Cc1ccccc1)C(=O)N(C)[C@@H](Cc1ccccc1)C(N)=O (H-[GABA][2Nal][NMeF][NMeF][NMeF]-NH2)', 'met'),
  ('CN(C(=O)CCCN)[C@@H](Cc1ccccc1)C(=O)N(C)[C@@H](Cc1ccccc1)C(=O)N(C)[C@@H](Cc1ccccc1)C(=O)N(C)[C@@H](Cc1ccccc1)C(N)=O (H-[GABA][NMeF][NMeF][NMeF][NMeF]-NH2)', 'not met'),
  ('CN(C(=O)CCC(=O)CN)[C@@H](Cc1ccccc1)C(=O)N(C)[C@@H](Cc1ccccc1)C(=O)N(C)[C@@H](Cc1ccccc1)C(=O)N(C)[C@@H](Cc1ccccc1)C(N)=O (X1-[NMeF][NMeF][NMeF][NMeF]-NH2)', 'met'),
  ('CN(C(=O)[C@H](Cc1ccc2ccccc2c1)NC(=O)C1CCCNC1)[C@@H](Cc1ccccc1)C(=O)N(C)[C@@H](Cc1ccccc1)C(=O)N(C)[C@@H](Cc1ccccc1)C(N)=O (stereo not given in full) (ξNip-[2Nal][NMeF][NMeF][NMeF]-NH2)', 'met'),
  ('CC(=O)N1CCC[C@H]1C(=O)N1CCC[C@H]1C(N)=O (Ac-Pro-Pro-NH2)', 'not met');

---

The entries below are paired with their reported Activity.
- testName: Permeability across artificial membrane assessed as compound transport at 200 uM after 4 hrs by PAMPA using HPLC/MS method
- Format: ADME
Square brackets hold non-standard residues; d marks the D form. Peptide text beside a SMILES is read from it. NMeF = CN[C@@H](Cc1ccccc1)C(=O)O; GABA = NCCCC(=O)O
measureName: Activity (%)

INSERT INTO measurements (compound, measurename, val) VALUES
  ('CC(C)NCC(O)COc1cccc2ccccc12 (centres undefined)', 'Activity', 13.9),
  ('CC(=O)N1CCC[C@H]1C(=O)N1CCC[C@H]1C(=O)N1CCC[C@H]1C(=O)N1CCC[C@H]1C(N)=O (Ac-PPPP-NH2)', 'Activity', 0),
  ('CN(C(=O)CCCN)[C@@H](Cc1ccccc1)C(=O)N(C)[C@@H](Cc1ccccc1)C(=O)N(C)[C@@H](Cc1ccccc1)C(=O)N(C)[C@@H](Cc1ccccc1)C(N)=O (H-[GABA][NMeF][NMeF][NMeF][NMeF]-NH2)', 'Activity', 0.8),
  ('O=C(O)C1CCCNC1 (centres undefined)', 'Activity', 0);

---

- testName: Permeability across artificial membrane assessed as compound transport at 200 uM after 4 hrs by PAMPA using HPLC/MS method
- Assay type: ADME
Square brackets hold non-standard residues; d marks the D form. Peptide text beside a SMILES is read from it. * marks the point of attachment. NMeF = CN[C@@H](Cc1ccccc1)C(=O)O; X1 = NCC(=O)CCC(=O)*
measureName: Activity (%)

INSERT INTO measurements (compound, val) VALUES
  ('CC(=O)N1CCC[C@H]1C(=O)N1CCC[C@H]1C(N)=O (Ac-Pro-Pro-NH2)', 0),
  ('CC(=O)N1CCC[C@H]1C(=O)N1CCC[C@H]1C(=O)N1CCC[C@H]1C(=O)N1CCC[C@H]1C(=O)N1CCC[C@H]1C(=O)N1CCC[C@H]1C(N)=O (Ac-PPPPPP-NH2)', 0),
  ('CN(C(=O)CCC(=O)CN)[C@@H](Cc1ccccc1)C(=O)N(C)[C@@H](Cc1ccccc1)C(=O)N(C)[C@@H](Cc1ccccc1)C(=O)N(C)[C@@H](Cc1ccccc1)C(N)=O (X1-[NMeF][NMeF][NMeF][NMeF]-NH2)', 2.1);

---

- testName: Permeability across artificial membrane assessed as compound transport at 200 uM after 4 hrs by PAMPA using HPLC/MS method
- Assay type: ADME
Numbered stars: 1 amine (or outer) side, 2 acyl side, 3 side chain; on linkers, the order of the positions; unused ones are H or OH. Square brackets hold non-standard residues; d marks the D form. Peptide text beside a SMILES is read from it. ξ: configuration not given here. 2Nal = N[C@@H](Cc1ccc2ccccc2c1)C(=O)O; NMeF = CN[C@@H](Cc1ccccc1)C(=O)O; ξNip = O=C(C1CCCN([*:1])C1)[*:2]
measureName: Activity

INSERT INTO results (compound, measurename, val) VALUES
  ('CN(C(=O)C1CCCNC1)[C@@H](Cc1ccccc1)C(=O)N(C)[C@@H](Cc1ccccc1)C(=O)N(C)[C@@H](Cc1ccccc1)C(=O)N(C)[C@@H](Cc1ccccc1)C(N)=O (some centres undefined) (ξNip-[NMeF][NMeF][NMeF][NMeF]-NH2)', 'Activity', '2.8%'),
  ('CN(C(=O)[C@H](Cc1ccc2ccccc2c1)NC(=O)C1CCCNC1)[C@@H](Cc1ccccc1)C(=O)N(C)[C@@H](Cc1ccccc1)C(=O)N(C)[C@@H](Cc1ccccc1)C(N)=O (some centres undefined) (ξNip-[2Nal][NMeF][NMeF][NMeF]-NH2)', 'Activity', '2.4%'),
  ('CC(=O)N1CCC[C@H]1C(=O)N1CCC[C@H]1C(=O)N1CCC[C@H]1C(=O)N1CCC[C@H]1C(=O)N1CCC[C@H]1C(=O)N1CCC[C@H]1C(=O)N1CCC[C@H]1C(=O)N1CCC[C@H]1C(N)=O (Ac-PPPPPPPP-NH2)', 'Activity', '0%'),
  ('CC(=O)N1CCC[C@H]1C(=O)N1CCC[C@H]1C(=O)N1CCC[C@H]1C(=O)N1CCC[C@H]1C(=O)N1CCC[C@H]1C(=O)N1CCC[C@H]1C(=O)N1CCC[C@H]1C(=O)N1CCC[C@H]1C(=O)N1CCC[C@H]1C(=O)N1CCC[C@H]1C(N)=O (Ac-PPPPPPPPPP-NH2)', 'Activity', '0%');
